# runConditions: in benzene, 324.25 K

{"compoundString": "C=CC(=O)Nc1cc(F)c(Br)c(F)c1", "solubility (mole fraction)": 0.003}

---

# runConditions: in benzene, 317.65 K

{"compoundString": "C=CC(=O)Nc1cc(F)c(Br)c(F)c1", "solubility (mole fraction)": 0.0022}

---

# runConditions: in pyridine, 298.95 K

{"compoundString": "C=CC(=O)Nc1cc(F)c(Br)c(F)c1", "solubility (mole fraction)": 0.157}

Numbers sourced from BigSolDB 2.1.
